Reference for the values: patent US7772274B1

experimental_details: Solubility of docetaxel in various solvents
Assay type: physicochemical
run_parameters: organic solvent or mixture; solvent TPGS 1000; read-out: Solubility of Docetaxel, Concentration
readout_kind: solubility (mg/mL)

[[record]]
compound = "CC(=O)O[C@@]12CO[C@@H]1C[C@H](O)[C@@]1(C)C(=O)[C@H](O)C3=C(C)[C@@H](OC(=O)[C@H](O)[C@@H](NC(=O)OC(C)(C)C)c4ccccc4)C[C@@](O)([C@@H](OC(=O)c4ccccc4)[C@H]21)C3(C)C [Docetaxel, trihydrate]"
observed = 50


----------
experimental_details: Solubility of docetaxel in various solvents
Format: physicochemical
run_parameters: organic solvent or mixture; solvent Glycerol; read-out: Solubility of Docetaxel, Concentration
readout_kind: solubility (µg/mL)

[[record]]
compound = "CC(=O)O[C@@]12CO[C@@H]1C[C@H](O)[C@@]1(C)C(=O)[C@H](O)C3=C(C)[C@@H](OC(=O)[C@H](O)[C@@H](NC(=O)OC(C)(C)C)c4ccccc4)C[C@@](O)([C@@H](OC(=O)c4ccccc4)[C@H]21)C3(C)C [Docetaxel, trihydrate]"
readout_kind = "solubility"
observed = 1650


----------
experimental_details: Solubility of docetaxel in various solvents
Format: physicochemical
run_parameters: organic solvent or mixture; solvent Ethanol; read-out: Solubility of Docetaxel, Concentration
readout_kind: solubility (mg/mL)

[[record]]
compound = "CC(=O)O[C@@]12CO[C@@H]1C[C@H](O)[C@@]1(C)C(=O)[C@H](O)C3=C(C)[C@@H](OC(=O)[C@H](O)[C@@H](NC(=O)OC(C)(C)C)c4ccccc4)C[C@@](O)([C@@H](OC(=O)c4ccccc4)[C@H]21)C3(C)C [Docetaxel, trihydrate]"
readout_kind = "solubility"
measure_unit = "mg/mL"
observed = 120


----------
experimental_details: Solubility of docetaxel in various solvents
Type: physicochemical
run_parameters: organic solvent or mixture; solvent N-Methyl 2-Pyrrolidone; read-out: Solubility of Docetaxel, Concentration
readout_kind: solubility (mg/mL)

[[record]]
compound = "CC(=O)O[C@@]12CO[C@@H]1C[C@H](O)[C@@]1(C)C(=O)[C@H](O)C3=C(C)[C@@H](OC(=O)[C@H](O)[C@@H](NC(=O)OC(C)(C)C)c4ccccc4)C[C@@](O)([C@@H](OC(=O)c4ccccc4)[C@H]21)C3(C)C [Docetaxel, trihydrate]"
measure_unit = "mg/mL"
observed = 17.6


----------
experimental_details: Solubility of docetaxel in various solvents
Format: physicochemical
run_parameters: organic solvent or mixture; solvent Benzyl benzoate; read-out: Solubility of Docetaxel, Concentration
readout_kind: solubility (mg/mL)

[[record]]
compound = "CC(=O)O[C@@]12CO[C@@H]1C[C@H](O)[C@@]1(C)C(=O)[C@H](O)C3=C(C)[C@@H](OC(=O)[C@H](O)[C@@H](NC(=O)OC(C)(C)C)c4ccccc4)C[C@@](O)([C@@H](OC(=O)c4ccccc4)[C@H]21)C3(C)C [Docetaxel, trihydrate]"
readout_kind = "solubility"
measure_unit = "mg/mL"
observed = 13


----------
experimental_details: Solubility of docetaxel in various solvents
Type: physicochemical
run_parameters: organic solvent or mixture; solvent PEG 400; read-out: Solubility of Docetaxel, Concentration
readout_kind: solubility (µg/mL)

[[record]]
compound = "CC(=O)O[C@@]12CO[C@@H]1C[C@H](O)[C@@]1(C)C(=O)[C@H](O)C3=C(C)[C@@H](OC(=O)[C@H](O)[C@@H](NC(=O)OC(C)(C)C)c4ccccc4)C[C@@](O)([C@@H](OC(=O)c4ccccc4)[C@H]21)C3(C)C [Docetaxel, trihydrate]"
readout_kind = "solubility"
measure_unit = "µg/mL"
observed = 10000

